assay.target: BCL6 (Homo sapiens, UniProt P41182)
Construct: endogenous in cells; host or cells: T47D breast cancer epithelial cells
measurement.notes: Immunofluorescence protocol for high content imaging of BCL6 (degradation) in T47D cells, 3 days compound treatment
Format: cell-based
stated.conditions: read-out: Mean DC50 (nM)* category

compound: CNC(=O)COc1cc2c(F)c(Nc3nc(N4CCC(CN5CCC6(CC5)CN(c5ccc7c(c5)C(=O)N(C5CCC(=O)NC5=O)C7=O)C6)CC4)ncc3Cl)ccc2n(C(C)C)c1=O (stereo not drawn)
assay.target: BCL6 (Homo sapiens, UniProt P41182)
DC50: < 10 nM
--
compound: CNC(=O)COc1cc2cc(Nc3nc(N4CCC(O[C@H]5C[C@H](N6CCN(c7ccc8c(c7F)CN([C@@H]7CCC(=O)NC7=O)C8=O)CC6)C5)CC4)ncc3Cl)ccc2n(C(C)C)c1=O
assay.target: BCL6 (Homo sapiens, UniProt P41182)
DC50: < 10 nM
--
compound: CNC(=O)COc1cc2cc(Nc3nc(N4CCN(C[C@H]5C[C@H](N6CCN(c7ccc8c(c7)CN(C7CCC(=O)NC7=O)C8=O)CC6)C5)CC4)ncc3Cl)ccc2n(C(C)C)c1=O (stereo partly drawn)
assay.target: BCL6 (Homo sapiens, UniProt P41182)
DC50: < 10 nM
--
compound: CNC(=O)COc1cc2cc(Nc3nc(N4CCC(O[C@H]5C[C@H](N6CCC(c7cc(OC)c8c(c7F)CN([C@H]7CCC(=O)NC7=O)C8=O)CC6)C5)CC4)ncc3Cl)ccc2n(C(C)C)c1=O
assay.target: BCL6 (Homo sapiens, UniProt P41182)
DC50: < 10 nM
--
compound: CNC(=O)COc1cc2cc(Nc3nc(N4CCN(CC5CCC6(CC5)CN(c5ccc7c(c5OC)CN(C5CCC(=O)NC5=O)C7=O)C6)CC4)ncc3Cl)ccc2n(C(C)C)c1=O (stereo not drawn)
assay.target: BCL6 (Homo sapiens, UniProt P41182)
DC50: 10 to 50 nM
--
compound: CNC(=O)COc1cc2cc(Nc3nc(N4CCC(O[C@H]5C[C@H](N6CCCN(c7ccc8c(c7C)C(=O)N(C7CCC(=O)NC7=O)C8=O)CC6)C5)CC4)ncc3Cl)ccc2n(C(C)C)c1=O (stereo partly drawn)
assay.target: BCL6 (Homo sapiens, UniProt P41182)
DC50: < 10 nM
--
compound: CNC(=O)COc1cc2cc(Nc3cc(N4CCC(CN5CCC6(CC5)CN(c5ccc7c(c5F)CN(C5CCC(=O)NC5=O)C7=O)C6(C)C)CC4)ncc3Cl)ccc2n(C(C)C)c1=O (stereo not drawn)
assay.target: BCL6 (Homo sapiens, UniProt P41182)
DC50: < 10 nM
--
compound: CNC(=O)COc1cc2cc(Nc3nc(N4CCC(CN5[C@@H](C)CC6(C[C@@H]5C)CN(c5ccc7c(c5)C(=O)N(C5CCC(=O)NC5=O)C7=O)C6)CC4)ncc3Cl)ccc2n(C(C)C)c1=O (stereo partly drawn)
assay.target: BCL6 (Homo sapiens, UniProt P41182)
DC50: < 10 nM
--
compound: CNC(=O)COc1cc2cc(Nc3cc(N4CCC(CN5CCC6(CC5)CN(c5ccc7c(c5)C(=O)N(C5CCC(=O)NC5=O)C7=O)C6)CC4)ncc3Cl)ccc2n(C(C)C)c1=O (stereo not drawn)
assay.target: BCL6 (Homo sapiens, UniProt P41182)
DC50: 10 to 50 nM
--
compound: CNC(=O)COc1cc2cc(Nc3nc(N4CCC(O[C@H]5C[C@H](N6CCC(c7c(OC)cc8c(c7F)CN(C7CCC(=O)NC7=O)C8=O)CC6)C5)CC4)ncc3Cl)ccc2n(C(C)C)c1=O (stereo partly drawn)
assay.target: BCL6 (Homo sapiens, UniProt P41182)
DC50: < 10 nM
--
compound: CNC(=O)COc1cc2cc(Nc3nc(N4CCC(O[C@H]5C[C@H](N6CCN(c7cc8c(cc7Cl)C(=O)N([C@H]7CCC(=O)NC7=O)C8)[C@H](C)C6)C5)CC4)ncc3Cl)ccc2n(C(C)C)c1=O
assay.target: BCL6 (Homo sapiens, UniProt P41182)
DC50: < 10 nM
--
compound: CNC(=O)COc1cc2cc(Nc3nc(N4CCC(O[C@H]5C[C@H](N6CCC(c7ccc8c(c7F)[C@H](C)N([C@H]7CCC(=O)NC7=O)C8=O)CC6)C5)CC4)ncc3Cl)ccc2n(C(C)C)c1=O
assay.target: BCL6 (Homo sapiens, UniProt P41182)
DC50: < 10 nM
